# target.or.test.system: PDZRN4_1, Q6ZMN7
# Sequence (Q6ZMN7 213-318): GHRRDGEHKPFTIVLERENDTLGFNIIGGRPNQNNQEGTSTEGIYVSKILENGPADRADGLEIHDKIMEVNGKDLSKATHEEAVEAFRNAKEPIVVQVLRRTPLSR
# assay.name: holdup assay
# Parameters: key: below the threshold = too weak to quantify, mostly under pKd 3.1 to 4
# experimental.context: plain residues with an end cap or a label only (N-terminal biotin on a linker: ado-ado)
observation.type: pKd

Take a look at these entries with their results.
GTGYDRKDYV [CLDN3, O15551]    below the threshold
DGVNEKVSCV [HTR2A, P28223]    below the threshold
NIAESLESLV [PTPRZ1, P23471]    3.99
AEASVACSLC [PTGIR, P43119]    below the threshold
KSRVAFFEEL [NF2, P35240;P35240-1]    below the threshold
PTPDLPQTRV [KLHDC7A, Q5VTJ3]    3.59

Quick request: pKd for each listed item, please.
1. TISFTQTSQF [SLC1A1, P43005]
2. ARGPPRESEV [FAM110D, Q8TAY7]

1. below the threshold
2. 4.4
